Answer each item with its documented %Inh.
System: TAK1;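 note: KINOMEscan kinase panel screen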
Construct: gene MAP3K7
cond: concentration: 1 μM, replicates: in singlicate; n = 1
Numbers only; they are read as %.

Recorded %Inh (compound "N#Cc1ccc(Oc2ccc(Nc3ncnc4cc[nH]c34)cc2Cl)cc1" ): 7

Just so you know, measured %Inh for Fc1cccc(COc2ccc(Nc3ncnc4nn5ccccc5c34)cc2Cl)c1 [GW689066] came out at 0

Value of measured %Inh for the entry CNc1nccc(-c2c(-c3ccc(F)cc3)ncn2C2CCN(C)CC2)n1 [SB-222903] : 0

# compound "Cn1ccc2ncnc(Nc3ccc(Oc4cccc(Cl)c4)c(Cl)c3)c21" ; its %Inh = 25

get_value(item= Cl.Fc1ccccc1COc1ccc(Nc2ncnc3ccc(-c4nnc(C(F)(F)F)o4)cc23)cc1Cl [GW424170] , readout=%Inh) returns 0

Summary for this compound, Cc1ccc(C)c(NC(=O)NCCNc2ccnc(Nc3ccc(F)cc3)n2)c1 [GSK1379878] : %Inh is 0

What the record says about Nc1nc(-c2ccc3c(N)n[nH]c3c2)cc(N2CCC[C@@H](C(=O)Nc3ccccc3)C2)n1.O=C(O)C(F)(F)F.O=C(O)C(F)(F)F [GSK2288359] : %Inh is 5

Recorded %Inh (compound Nc1nc(-c2ccc3c(N)n[nH]c3c2)cc(N2CCCCC2)n1 [GSK2228768] ): 0

Documented %Inh of Cl.c1ccc(Cn2ccc3cc(Nc4ncnc5ccccc45)ccc32)cc1 [GW275568] : 6

Value of %Inh reported for the compound "O=C(Nc1ccccc1)Nc1ccc(Oc2ccc3nccn3n2)cc1" is 0

Query Cc1cc(N2CCC(NS(=O)(=O)c3ccc(F)cc3)CC2)nc(Nc2cccc(C#N)c2)n1.O=C(O)C(F)(F)F [GSK1653537] yields %Inh of 0

%Inh reported for this compound CC(C)N1CCC(n2cnc(-c3ccc(F)cc3)c2-c2ccnc(N)n2)CC1 [SB-223132] : 0

Consider Fc1cccc(COc2ccc(Nc3ncnc4sc(-c5ccc[nH]5)cc34)cc2Cl)c1 [GW707818] . Its measured %Inh is 0

Input "Clc1cc(Nc2ncnc3cc[nH]c23)ccc1OCc1ccccn1" . Output %Inh: 9

Entry "COC(=O)c1c(-c2ccccc2)c2cc(Cl)ccc2c(=O)n1Cc1ccc(S(C)(=O)=O)cc1" ; %Inh = 17

# %Inh (compound: CN1CCC(n2cnc(-c3ccc(F)cc3)c2-c2ccnc(NC3CCNCC3)n2)CC1 [SB-229482] ) is 34

// %Inh lookup, compound = CNc1nccc(-c2c(-c3ccc(F)cc3)ncn2CCCN2CCOCC2)n1 [SB-222516] , result: 0

Sure, the documented %Inh for "O=C(CCO)NCCn1ccc2ncnc(Nc3ccc(Oc4cccc(C(F)(F)F)c4)c(Cl)c3)c21" is 0
